Data provenance: ChEMBL document CHEMBL1146966

- System: A2780
- protocol summary: Antiproliferative activity against A2780 cell line after 48 hrs by SRB assay
- Format: functional
- test conditions: Homo sapiens, A2780, 48 h
Entries and their GI50
recorded metric: GI50 (µM)

[
  {
    "compound": "CC(C)C/C=C(\\CO)C(=O)c1ccccc1",
    "recorded metric": "GI50",
    "units text": "µM",
    "relation symbol": "=",
    "val": 18
  },
  {
    "compound": "O=C(/C=C/c1ccccc1)CC(O)c1ccccc1 (stereo unspecified)",
    "recorded metric": "GI50",
    "units text": "µM",
    "relation symbol": "=",
    "val": 3.3
  },
  {
    "compound": "O=C(/C=C/C1CCCCC1)CC(O)C1CCCCC1 (stereo unspecified)",
    "recorded metric": "GI50",
    "units text": "µM",
    "relation symbol": "=",
    "val": 1.8
  },
  {
    "compound": "CC(C)C/C=C(/C(=O)c1ccccc1)c1ccccc1",
    "recorded metric": "GI50",
    "units text": "µM",
    "relation symbol": "=",
    "val": 21
  },
  {
    "compound": "CC(C)C/C=C/C(=O)c1ccccc1",
    "recorded metric": "GI50",
    "units text": "µM",
    "relation symbol": "=",
    "val": 20
  },
  {
    "compound": "O=C(/C=C/CCCCCCCCCCBr)CC(O)CCCCCCCCCCBr (stereo unspecified)",
    "recorded metric": "GI50",
    "units text": "µM",
    "relation symbol": "=",
    "val": 16
  },
  {
    "compound": "CC(C)CC(O)C(C)C(=O)/C=C\\c1ccc(Br)cc1 (stereo unspecified)",
    "recorded metric": "GI50",
    "units text": "µM",
    "relation symbol": "=",
    "val": 5.5
  },
  {
    "compound": "C/C(=C\\C1CCCCC1)C(=O)c1ccccc1",
    "recorded metric": "GI50",
    "units text": "µM",
    "relation symbol": "=",
    "val": 28
  },
  {
    "compound": "CC(=O)/C=C/C1CCCCC1",
    "recorded metric": "GI50",
    "units text": "µM",
    "relation symbol": "=",
    "val": 21
  },
  {
    "compound": "CC(C)CC(O)CC(=O)/C=C\\c1ccccc1 (stereo unspecified)",
    "recorded metric": "GI50",
    "units text": "µM",
    "relation symbol": "=",
    "val": 2.6
  },
  {
    "compound": "CC(C)(C)/C=C/C(=O)CC(O)C(C)(C)C (stereo unspecified)",
    "recorded metric": "GI50",
    "units text": "µM",
    "relation symbol": "=",
    "val": 9.9
  },
  {
    "compound": "CC(C)C/C=C/C(=O)CC(O)CC(C)C (stereo unspecified)",
    "recorded metric": "GI50",
    "units text": "µM",
    "relation symbol": "=",
    "val": 17
  },
  {
    "compound": "Cc1ccc(/C=C\\C(=O)CC(O)CC(C)C)cc1 (stereo unspecified)",
    "recorded metric": "GI50",
    "units text": "µM",
    "relation symbol": "=",
    "val": 3.9
  },
  {
    "compound": "CCCCCC/C=C/C(C)=O",
    "recorded metric": "GI50",
    "units text": "µM",
    "relation symbol": "=",
    "val": 91
  },
  {
    "compound": "C/C(=C\\CC(C)C)C(=O)c1ccccc1",
    "recorded metric": "GI50",
    "units text": "µM",
    "relation symbol": ">",
    "val": 100
  },
  {
    "compound": "CCCCCC/C=C/C(=O)CC(O)CCCCCC (stereo unspecified)",
    "recorded metric": "GI50",
    "units text": "µM",
    "relation symbol": "=",
    "val": 26
  }
]

###

- Test system: WiDr
- protocol summary: Antiproliferative activity against WiDr cell line after 48 hrs by SRB assay
- Type: functional
- test conditions: Homo sapiens
Entries and their GI50
recorded metric: GI50 (µM)

[
  {
    "compound": "O=C(/C=C/C1CCCCC1)CC(O)C1CCCCC1 (stereo unspecified)",
    "recorded metric": "GI50",
    "relation symbol": "=",
    "val": 2.9
  },
  {
    "compound": "CC(C)C/C=C/C(=O)c1ccccc1",
    "recorded metric": "GI50",
    "relation symbol": "=",
    "val": 22
  },
  {
    "compound": "CC(C)CC(O)C(C)C(=O)/C=C\\c1ccc(Br)cc1 (stereo unspecified)",
    "recorded metric": "GI50",
    "relation symbol": "=",
    "val": 12
  },
  {
    "compound": "CCCCCC/C=C/C(C)=O",
    "recorded metric": "GI50",
    "relation symbol": "=",
    "val": 56
  },
  {
    "compound": "C/C(=C\\CC(C)C)C(=O)c1ccccc1",
    "recorded metric": "GI50",
    "relation symbol": ">",
    "val": 100
  },
  {
    "compound": "O=C(/C=C/c1ccccc1)CC(O)c1ccccc1 (stereo unspecified)",
    "recorded metric": "GI50",
    "relation symbol": "=",
    "val": 14
  },
  {
    "compound": "O=C(/C=C/CCCCCCCCCCBr)CC(O)CCCCCCCCCCBr (stereo unspecified)",
    "recorded metric": "GI50",
    "relation symbol": "=",
    "val": 32
  },
  {
    "compound": "CCCCCC/C=C/C(=O)CC(O)CCCCCC (stereo unspecified)",
    "recorded metric": "GI50",
    "relation symbol": "=",
    "val": 31
  },
  {
    "compound": "Cc1ccc(/C=C\\C(=O)CC(O)CC(C)C)cc1 (stereo unspecified)",
    "recorded metric": "GI50",
    "relation symbol": "=",
    "val": 15
  },
  {
    "compound": "CC(C)CC(O)CC(=O)/C=C\\c1ccccc1 (stereo unspecified)",
    "recorded metric": "GI50",
    "relation symbol": "=",
    "val": 16
  },
  {
    "compound": "CC(C)C/C=C/C(=O)CC(O)CC(C)C (stereo unspecified)",
    "recorded metric": "GI50",
    "relation symbol": "=",
    "val": 21
  },
  {
    "compound": "CC(=O)/C=C/C1CCCCC1",
    "recorded metric": "GI50",
    "relation symbol": "=",
    "val": 23
  },
  {
    "compound": "CC(C)(C)/C=C/C(=O)CC(O)C(C)(C)C (stereo unspecified)",
    "recorded metric": "GI50",
    "relation symbol": "=",
    "val": 59
  },
  {
    "compound": "CC(C)C/C=C(\\CO)C(=O)c1ccccc1",
    "recorded metric": "GI50",
    "relation symbol": "=",
    "val": 19
  },
  {
    "compound": "C/C(=C\\C1CCCCC1)C(=O)c1ccccc1",
    "recorded metric": "GI50",
    "relation symbol": "=",
    "val": 41
  },
  {
    "compound": "CC(C)C/C=C(/C(=O)c1ccccc1)c1ccccc1",
    "recorded metric": "GI50",
    "relation symbol": "=",
    "val": 21
  }
]
